Data credit: ChEMBL document CHEMBL1152546

System: Mus musculus
protocolDescription: Analgesic activity in ICR mouse assessed as pain threshold variation at 25 umol/kg, po administered as single dose measured after 120 mins by tail flick test relative to control
Format: functional

{"molecule": "O=C(CN(c1nc(Cl)nc2[nH]cnc12)C1CC1)N[C@@H](Cc1cnc[nH]1)C(=O)O", "studySystem": "Mus musculus", "unitName": "%", "Activity": 10.66}
{"molecule": "CSCC[C@H](NC(=O)CN(c1nc(Cl)nc2[nH]cnc12)C1CC1)C(=O)OCc1ccccc1", "studySystem": "Mus musculus", "unitName": "%", "Activity": 31.55}
{"molecule": "NC(=O)CC[C@H](NC(=O)CN(c1nc(Cl)nc2[nH]cnc12)C1CC1)C(=O)O", "studySystem": "Mus musculus", "unitName": "%", "Activity": 17.75}
{"molecule": "C[C@@H](O)[C@H](NC(=O)CN(c1nc(Cl)nc2[nH]cnc12)C1CC1)C(=O)OCc1ccccc1", "studySystem": "Mus musculus", "unitName": "%", "Activity": 30.7}
{"molecule": "C[C@H](NC(=O)CN(c1nc(Cl)nc2[nH]cnc12)C1CC1)C(=O)O", "studySystem": "Mus musculus", "unitName": "%", "Activity": 28.41}
{"molecule": "O=C(CN(c1nc(Cl)nc2[nH]cnc12)C1CC1)N[C@@H](CC(=O)OCc1ccccc1)C(=O)OCc1ccccc1", "studySystem": "Mus musculus", "unitName": "%", "Activity": 12.14}
{"molecule": "CC(C)[C@H](NC(=O)CN(c1ncnc2c1ncn2C1CCCCO1)C1CC1)C(=O)OCc1ccccc1 (stereo partly drawn)", "studySystem": "Mus musculus", "unitName": "%", "Activity": 25.79}
{"molecule": "O=C(O)CC[C@H](NC(=O)CN(c1nc(Cl)nc2[nH]cnc12)C1CC1)C(=O)O", "studySystem": "Mus musculus", "unitName": "%", "Activity": 30.08}
